Tested on: KM12
MEASUREMENT_NOTES: NCI tumour cell line growth inhibition, 48 h
Activity calls are given as the source filed them. Cut-off read from the data, not from the text of the source: active = GI50 up to about 1.1 µM and inactive = higher.
MEASURED_QUANTITY: GI50

Sure, the documented GI50 for Cc1noc(NC(=O)Nc2ccccc2F)c1C#N is > 100 µM (inactive)

Sure, the documented GI50 for Clc1cccc(C2SCc3nc4ccccc4n32)c1 (configuration not stated) is 18.8 µM (inactive)

Sure, the documented GI50 for OC1[C@H](O)CN(OCc2ccccc2)C[C@@H]1O (some centres not stated) is > 100 µM (inactive)

Sure, the documented GI50 for CC(C)(C)C1CC[C@H]2c3c([nH]c4ccc(Br)cc34)[C@H]3C(=O)N(c4ccccc4)C(=O)[C@H]3[C@H]2C1 (some centres not stated) is 17.6 µM (inactive)

Sure, the documented GI50 for CCOc1ccc(C(CN2CCOCC2)C(C)=O)cc1OC (configuration not stated) is 15.3 µM (inactive)

Sure, the documented GI50 for COC1=CC(=O)c2c(O)c3c(c(O)c2C1=O)CC(C)(O)OC3 (configuration not stated) [FUSARUBIN] is 3.1 µM (inactive)

----------
Each entry below lists one item and its recorded GI50 value.
Test system: SK-OV-3
MEASUREMENT_NOTES: NCI tumour cell line growth inhibition, 48 h
Activity calls are given as the source filed them. Cut-off read from the data, not from the text of the source: active = GI50 up to about 1.1 µM and inactive = higher.

Illustrative cases are given below, each with its answer.
> print(dat)
                                   molecule  observed.measurement
1  O=C1N/C(=N/N=C/c2c[nH]c3ccccc23)N/C1=C\c1cccs1    38.6 µM (inactive)
2  CC1(C)O[C@@H](C[C@]2(C#N)C[C@H](CCl)OC(C)(C)O2)C[C@@H](C#N)O1   > 100 µM (inactive)

Sure, the documented GI50 for O=C(C(=O)N1CC2C=CC1CC2)c1c[nH]c2ccccc12 (centres undefined) is > 100 µM (inactive)

Sure, the documented GI50 for CC(=O)OCC(=O)[C@@]12OC(C)(C)O[C@@H]1C[C@H]1[C@@H]3CC=C4C[C@@H](O)CC[C@]4(C)[C@H]3CC[C@@]12C is 38.3 µM (inactive)

----------
System: OVCAR-8
MEASUREMENT_NOTES: NCI tumour cell line growth inhibition, 48 h
Active and inactive are the calls of the source. No stated cut-off is given here; in the data, active = GI50 up to about 1.1 µM and inactive = higher.
Please answer using one outcome listed in 1 (yes) = active, 0 (no) = inactive

Example cases with answers are listed next.
> print(dat)
                                   compound  classification
1  Cc1cccc(NC(=O)c2cc3cc(/N=N/c4ccccc4Cl)ccc3oc2=O)c1          0 (no)
2  COC1CC(C)(NC(C)=O)C2OC(c3ccccc3)OCC2O1 (centres undefined)          0 (no)
3            O=c1c2cc(Br)ccc2oc2ccc(Br)cc12          0 (no)
4                  CNc1ccc2c(c1)Cc1ccccc1-2          0 (no)
5  N#CCC(=O)N/N=C1/C(=O)NC(=O)C(=O)C1c1nc2ccccc2s1 (centres undefined)          0 (no)

Now consider a different compound.
For CN(CCCNc1ccc2ncn3c4ccccc4c(=O)c1c23)CCCN1C(=O)c2cccc3cc([N+](=O)[O-])cc(c23)C1=O , what call appears in the results of this test?
1 (yes)

Recorded values, source ChEMBL document CHEMBL1201862.
